Collected literature values of IC50 measured for PIK3CA (human) (UniProt P42336).
Experimental readout: IC50 (nM)

{"Compound": "Cc1cccc2cc(Cn3nc(-c4ccc(F)c(O)c4)c4c(N)ncnc43)n(C(C)C)c(=O)c12", "Study system": "PIK3CA (human) (UniProt P42336)", "Modifier": ">", "Test value": 10000}
{"Compound": "CNC(=O)C(C)Cn1cnc2c(F)cc(-c3cnc(OC)c(NS(=O)(=O)c4ccc(F)cc4Cl)c3)cc2c1=O (single isomer, unassigned)", "Study system": "PIK3CA (human) (UniProt P42336)", "Modifier": "=", "Test value": 19.5}
{"Compound": "COc1ncc(-c2ccc3ncc4nnn(C)c4c3n2)cc1NS(=O)(=O)c1ccc(F)cc1F", "Study system": "PIK3CA (human) (UniProt P42336)", "Modifier": "<", "Test value": 100}
{"Compound": "C[C@@H]1CN(C2CCN(C(=O)c3nc4c(N5CCOCC5)nc(-c5cn[nH]c5)nc4[nH]3)CC2)C[C@H](C)O1", "Study system": "PIK3CA (human) (UniProt P42336)", "Modifier": "=", "Test value": 986}
{"Compound": "COCCNC(=O)C(C)Cn1cnc2ccc(-c3cnc(OC)c(NS(=O)(=O)c4ccc(F)cc4Cl)c3)cc2c1=O (single isomer, unassigned)", "Study system": "PIK3CA (human) (UniProt P42336)", "Modifier": "=", "Test value": 6.8}
{"Compound": "CC(=O)Nc1nc2ccc(-c3nn(Cc4cc5cccc(C)c5c(=O)n4C4CC4)c4ncnc(N)c34)cc2s1", "Study system": "PIK3CA (human) (UniProt P42336)", "Modifier": "<", "Test value": 100}
{"Compound": "Nc1nc2cc(-c3ccc4ncc(N5CCC(O)CC5)cc4n3)ccc2o1", "Study system": "PIK3CA (human) (UniProt P42336)", "Modifier": "<", "Test value": 100}
{"Compound": "O=C1C(=Cc2cn(CCCN3CCN(CCO)CC3)c3ncccc23)Oc2c1ccc(O)c2O", "Study system": "PIK3CA (human) (UniProt P42336)", "Modifier": ">", "Test value": 10000}
{"Compound": "C=CC(=O)Nc1ccc(NS(=O)(=O)c2cccc(Nc3ncc4c(n3)N(C)c3ccc(C)cc3C(=O)N4C)c2)cc1", "Study system": "PIK3CA (human) (UniProt P42336)", "Modifier": "=", "Test value": 728}

* * *

Collected literature values of pIC50 measured for PIK3CA (human) (UniProt P42336).
pIC50: −log10 of the molar value.

{"Molecule": "C#CCN(C)C(=O)C1CCN(c2ccnc3c2c(/C=C2\\Oc4ccc(NC(=O)Nc5cccnc5)cc4C2=O)cn3C)CC1", "pIC50": 6.04}
{"Molecule": "Cn1cc(/C=C2\\Oc3cccc(O)c3C2=O)c2c(N3CCCC(C(=O)N4CCCC4)C3)ccnc21 (stereo not shown)", "pIC50": 6.82}
{"Molecule": "CC(C)Cn1c(N2CCN(C=O)[C@H](C)C2)nc2c(N3CCOCC3)nc(-c3cnc(N)nc3)nc21", "pIC50": "> 8.00"}
{"Molecule": "Cn1cc(-c2nc(N3CCOCC3)c3nc(C(=O)N4CCC(N5CCOCC5)CC4)[nH]c3n2)cn1", "pIC50": "≤ 6.00"}
{"Molecule": "CC(Oc1nc(-c2ccc3oc(N)nc3c2)cnc1N)C(F)(F)F (stereo not shown)", "pIC50": "> 5.00"}
{"Molecule": "Cc1cccc2cc([C@H](C)Nc3ncnc4[nH]c(Cl)cc34)n(C3CC3)c(=O)c12", "pIC50": "< 5.00"}
{"Molecule": "Nc1cn2cc(-c3ccc4oc(N)nc4c3)ccc2n1", "pIC50": "> 6.00"}
{"Molecule": "Oc1cccc(-c2cc3c(N4CCOCC4)nc(N4CCOCC4)nc3[nH]2)c1", "pIC50": 5.98}
{"Molecule": "O=C1CCCN1[C@H]1CC[C@H](Nc2cc(-n3c(C(F)F)nc4ccccc43)nc(N3CCOCC3)n2)CC1", "pIC50": "< 5.52"}
{"Molecule": "Cc1cccc2cc([C@H](C)Nc3ncnc4[nH]c(Cl)nc34)n(C3CC3)c(=O)c12", "pIC50": "< 5.00"}

* * *

Collected literature values of IC50 measured for PIK3CA (human) (UniProt P42336).

{"Molecule": "C[C@H]1CN(c2cnc3ccc(-c4ccc5sc(N)nc5c4)cc3n2)CCN1", "IC50": "< 1 µM"}
{"Molecule": "COc1cc(-c2cccc3cc([C@H](C)NC(=O)c4c(N)nn5cccnc45)n(C)c(=O)c23)ccn1", "IC50": "1 to 10 µM"}
{"Molecule": "Cc1cccc(C)c1-n1c(CNc2ncnc3[nH]cnc23)cc2cccc(C)c2c1=O", "IC50": "> 10 µM"}
{"Molecule": "CCN(CC)c1ncc2c(n1)-c1sc(NC(=O)N3CC[C@@H](C)[C@H]3C(N)=O)nc1CC2", "IC50": "< 0.003 µM"}
{"Molecule": "Nc1nc2cc(-c3ccc4ncc(N5CCNC(C(F)F)C5)nc4c3)ccc2o1 (stereo not drawn)", "IC50": "< 0.1 µM"}
{"Molecule": "CC(=O)c1ccc(Oc2cc(=O)[nH]c3ccccc23)cc1", "IC50": "1.66 µM"}

* * *

Collected literature values of IC50 measured for PIK3CA (human) (UniProt P42336).
Experimental readout: IC50

{"Smi": "COc1ncc(-c2ccc3ncc4nnc(CCN5CCOCC5)n4c3c2)cc1NS(C)(=O)=O", "Test value": "< 0.1 µM"}
{"Smi": "COC[C@@H]1CCCN1CCNc1ccc(-c2cccc(Oc3cc(=O)[nH]c4ccccc34)c2)cc1", "Test value": "11 µM"}
{"Smi": "Nc1nc2cc(-c3ccc4c(N)n[nH]c4c3)ccc2o1", "Test value": "< 10 µM"}
{"Smi": "COc1cccc(-c2nc(Nc3ccc(C(N)=O)cc3)c3cnn(C4CCN(Cc5ccccc5)CC4)c3n2)c1", "Test value": "2.65 µM"}
{"Smi": "CC(=O)Nc1cncc(-c2cnc3c(N4CCOCC4)nc(-c4cnc(N)nc4)nc3c2)c1", "Test value": "< 0.05 µM"}
{"Smi": "Nc1nc2ccc(-c3ccc4ncc(N5CCOCC5)nc4c3)cc2o1", "Test value": "< 0.1 µM"}
{"Smi": "C[C@H]1COCCN1c1nc(N2CCOC[C@@H]2C)c2nc(-c3ccnc4[nH]ccc34)[nH]c2n1", "Test value": "6.53 µM"}
{"Smi": "CCN(CC)CC(=O)N1CCN(c2cnc3ccc(-c4ccc5oc(N)nc5c4)cc3n2)CC1", "Test value": "< 0.1 µM"}

* * *

Collected literature values of pIC50 measured for PIK3CA (human).
pIC50: −log10 of the molar value.
Experimental readout: pIC50

{"Compound": "Nc1ncc(-c2ccc3ncc4ncn(C5CCN(C(=O)C6CC6)CC5)c4c3n2)cc1C(F)(F)F", "Study system": "PIK3CA (human)", "Test value": "> 7.00"}
{"Compound": "CCC(Nc1ncnc2[nH]cnc12)c1cc2cccc(C)c2c(=O)n1-c1ccccc1C (centres unmarked)", "Study system": "PIK3CA (human)", "Test value": "< 5.00"}
{"Compound": "C[C@H](NC(=O)c1c(N)nn2cccnc12)c1cc2scc(Cl)c2c(=O)n1-c1ccccc1", "Study system": "PIK3CA (human)", "Test value": "5.00 to 6.00"}
{"Compound": "C[C@H](Nc1ncnc2cccnc12)c1cc2c(F)cccc2c(=O)n1-c1ccccc1", "Study system": "PIK3CA (human)", "Test value": "5.00 to 6.00"}
{"Compound": "COc1ncc(-c2cnc3[nH]cc(C(=O)c4c(F)ccc(NS(C)(=O)=O)c4F)c3c2)cn1", "Study system": "PIK3CA (human)", "Test value": "≥ 5.00"}
{"Compound": "CC(=O)N1CCN(c2nc3c(N4CCOCC4)nc(-c4cnc(N)nc4)nc3n2CC(F)(F)F)C[C@@H]1C", "Study system": "PIK3CA (human)", "Test value": "> 8.00"}
{"Compound": "C[C@H](Nc1ccnc2cccnc12)c1cc2cccc(Cl)c2c(=O)n1-c1cccc(F)c1", "Study system": "PIK3CA (human)", "Test value": "5.00 to 6.00"}
{"Compound": "O=c1cc(Oc2cccc(NCc3ccc(-c4cccnc4)cc3)c2)c2ccccc2[nH]1", "Study system": "PIK3CA (human)", "Test value": 5.10}

* * *

Collected literature values of IC50 measured for PIK3CA (human) (UniProt P42336).

{"Smi": "COc1ncc(-c2cnc3[nH]cc(C(=O)c4c(F)ccc(NS(=O)(=O)c5c(F)cccc5F)c4F)c3c2)cn1", "IC50": "≤ 10000 nM"}
{"Smi": "CS(=O)(=O)CCN1CCN(C(=O)c2cnc3ccc(-c4ccc5oc(N)nc5c4)cn23)CC1", "IC50": "< 100 nM"}
{"Smi": "Cc1nccn1-c1cnc2ccc(-c3ccc4oc(N)nc4c3)cc2n1", "IC50": "< 100 nM"}
{"Smi": "O=c1cc(Oc2cccc3ccccc23)c2ccccc2[nH]1", "IC50": "> 10000 nM"}
{"Smi": "Cn1cc(/C=C2\\Oc3ccc(NC(=O)Nc4ccc(N5CCOCC5)nc4)cc3C2=O)c2c(N3CC4CCC(C3)O4)ccnc21", "IC50": "2220 nM"}
{"Smi": "CC(C)N1CCC(Oc2nc([C@H](C)Nc3ccnc4ccnn34)cc3cccc(Cl)c23)CC1", "IC50": "< 10000 nM"}
{"Smi": "CC(C)N1CCC(Nc2ncnc3ccc(-c4ccc5oc(N)nc5c4)cc23)CC1", "IC50": "< 100 nM"}
{"Smi": "Cn1cc(/C=C2\\Oc3cc(O)ccc3C2=O)c2c(-c3ccccc3)ccnc21", "IC50": "219 nM"}
{"Smi": "Cn1ncc2c(-c3cccc(CO)c3)nc(N3CCOCC3)nc21", "IC50": "100 to 10000 nM"}
{"Smi": "Cc1ccc(NC(=O)c2cnc3ccc(-c4ccc5oc(N)nc5c4)cn23)cn1", "IC50": "< 100 nM"}
{"Smi": "CNC(=O)CCCn1cnc2ccc(-c3cnc(C)c(NS(=O)(=O)c4ccc(F)cc4Cl)c3)cc2c1=O", "IC50": "2.84 nM"}
